# experiment.summary: Binding affinity against rat benzodiazepine (BZD) receptor
measurement.label: Ki (µM)
The reply should contain only the number, in µM.

// below: answered compounds
CCNC1=Nc2ccc(Cl)cc2C(c2ccccc2F)=N[C@H]1CCC(=O)OC    0.146
COC(=O)CC[C@@H]1N=C(c2ccccc2F)c2cc(Cl)ccc2-n2c1cnc2C    0.011
COC(=O)CC[C@@H]1N=C(c2ccccc2F)c2cc(Cl)ccc2N=C1NCc1ccncc1    1.23

Entry COC(=O)CC[C@@H]1N=C(c2ccccn2)c2cc(Cl)ccc2-n2ccnc21 , Ki reported as 0.079

The recorded Ki for entry COC(=O)CC[C@@H]1N=C(c2ccccn2)c2cc(Cl)ccc2NC1=O equals 0.139

Consider COC(=O)CC[C@@H]1N=C(c2ccccc2F)c2cc(Cl)ccc2-n2cc(C)nc21 . Its measured Ki is 0.007

Memo: Cc1ncc2n1-c1ccc(Cl)cc1C(c1ccccc1F)=NC2 , reported Ki: 0.002

Ki reported for this compound CNC1=Nc2ccc(Cl)cc2C(c2ccccc2F)=N[C@H]1CCC(=O)OC : 0.096

Reported Ki ( COC(=O)CC[C@@H]1N=C(c2ccccn2)c2cc(Cl)ccc2-n2cc(C)nc21 ) = 0.06
